# targetDesc: T1, MORF DPF domain (residues 211–322), wild type (human, UniProt Q8WYB5 211-322)
# T1 construct: MORF (KAT6B) double PHD finger (DPF), residues 211–322; The methods say the GST tag was either cleaved with thrombin or left on; also called WT MORFDPF; DPF domain of MORF; source: E. coli Rosetta2 (DE3) pLysS, purified (glutathione Sepharose 4B, size exclusion); unlabeled or 15N-labeled
# T1 sequence (looked up): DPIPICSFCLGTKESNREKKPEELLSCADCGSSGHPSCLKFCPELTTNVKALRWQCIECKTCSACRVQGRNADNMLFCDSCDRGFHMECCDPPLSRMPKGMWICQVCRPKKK
# methodNotes: other fluorescence titration; tryptophan fluorescence, 25 °C; 0.8–2 µM MORFDPF in PBS pH 6.5 with 5 mM DTT, increasing concentrations of H3 peptides (residues 1–19); excitation 295 nm
# conditions: both partners purified
Ends that are not written are not given here. * marks the point of attachment. Crotonyl(E) = C/C=C/C(=O)*
parameterMeasured: Kd

Query: Kd lookup needed for ARTKQTARKSTGGK(Crotonyl(E))APRKQ (peptide, UniProt P68431 2-20, looked up, histone H3 N-terminal tail, residues 1–19; source: synthetic peptide) [histone H3K14cr peptide (residues 1–19 of H3)] , thanks.
Response: 700 nM
